Target: RAF proto-oncogene serine/threonine-protein kinase [Y340E,Y341E] (Human, UniProt P04049, Y340E/Y341E)
Sequence (P04049 whole entry Y340E/Y341E): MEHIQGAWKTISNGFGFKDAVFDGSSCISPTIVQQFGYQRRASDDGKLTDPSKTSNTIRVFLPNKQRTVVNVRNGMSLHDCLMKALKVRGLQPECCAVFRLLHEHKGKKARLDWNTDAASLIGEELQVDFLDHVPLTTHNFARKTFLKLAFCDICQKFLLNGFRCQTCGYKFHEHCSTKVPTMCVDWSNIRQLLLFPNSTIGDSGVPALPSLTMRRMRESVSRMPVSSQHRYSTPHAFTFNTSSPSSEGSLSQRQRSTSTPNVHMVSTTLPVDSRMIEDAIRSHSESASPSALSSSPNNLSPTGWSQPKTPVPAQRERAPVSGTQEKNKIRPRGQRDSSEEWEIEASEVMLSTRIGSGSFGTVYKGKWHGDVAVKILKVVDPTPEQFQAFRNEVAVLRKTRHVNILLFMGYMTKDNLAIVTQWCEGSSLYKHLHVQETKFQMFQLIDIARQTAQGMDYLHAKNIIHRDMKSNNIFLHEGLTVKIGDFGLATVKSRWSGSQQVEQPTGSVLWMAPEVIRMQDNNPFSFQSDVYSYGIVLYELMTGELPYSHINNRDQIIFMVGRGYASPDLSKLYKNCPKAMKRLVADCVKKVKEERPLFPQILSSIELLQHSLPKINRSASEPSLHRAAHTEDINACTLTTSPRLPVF
Test: Raf Activity Assay
Details: pH 7.5; 25 °C
Each record here notes measured log10(IC50).
Values are log10 of IC50 in nM.

Use these answered entries as a reference point.
Cc1ncc(NC(=O)c2ccnc(C(C)(F)F)c2)cc1-c1cc(N2CCOC[C@@H]2C)n(C)c(=O)c1: 0.97
Cc1ccc(NC(=O)c2ccnc(C(C)(C)C#N)c2)cc1-c1cc(N2CCOCC2)nc(OC2CNC2)n1: -1.10
CCOc1nc(-c2cc(NC(=O)c3ccnc(C(C)C)c3)ccc2C)cc(N2CCOCC2)n1: -0.70

// query Identify measured log10(IC50) associated with `CCNc1nc(-c2cc(NC(=O)c3ccnc(C(C)(F)F)c3)cnc2C)cc(N2CCOCC2)n1`
// result 0.08

----------
Biological target: RAF proto-oncogene serine/threonine-protein kinase [Y340E,Y341E] (Human, UniProt P04049, Y340E/Y341E)
Test: Raf Activity Assay
Details: pH 7.5; 25 °C
Measured IC50, listed per entry.
Give the number; nM is assumed, so skip it.

Cc1ncc(NC(=O)c2cnnc(C(C)(C)C#N)c2)cc1-c1cc(N2CCOCC2)c(OC2CCOCC2)nn1 [US9694016, 635]: 6.6
Cn1cc(-c2cc(NC(=O)c3ccnc(C(C)(F)F)c3)ccc2C#N)cc(N2CCOCC2)c1=O [US9694016, 416]: 200
CNC(=O)C1CN(c2cc(-c3cc(NC(=O)c4cccc(C(F)(F)F)c4)cnc3C)nn3ccnc23)CCO1 (centres undefined) [US9694016, 874]: 3.4

// query For the compound Cc1ncc(NC(=O)c2ccnc(C(C)(C)C#N)c2)cc1-c1cnc(OC(F)F)c(N2CCOCC2)c1 [US9694016, 225] , report IC50.
// result 3.9

// query Look up IC50 of COc1nnc(-c2cc(NC(=O)c3ccnc(C(C)(C)F)c3)cnc2C)cc1N1CCOCC1 [US9694016, 608] and report it.
// result 2

// query For the compound CCNc1nc(-c2cc(NC(=O)c3cccc(S(C)(=O)=O)c3)ccc2C)cc(N2CCOCC2)n1 [US9694016, 704] , give its reported IC50.
// result 0.08

// query Tell me IC50 reported for Cc1ncc(NC(=O)c2ccnc(C3(C#N)CC3)c2)cc1-c1cnc(OC2CCOCC2)c(N2CCOCC2)c1 [US9694016, 940]
// result 1.33

// query Consider the compound Cc1ncc(NC(=O)c2cc(CN(C)C)cc(C(F)(F)F)c2)cc1-c1cc(N2CCOCC2)c(=O)n(C)c1 [US9694016, 401] and give its recorded IC50.
// result 12

// query Give the reported value of IC50 for this record: Cc1ncc(NC(=O)c2ccnc(C(C)(F)F)c2)cc1-c1cnc(C#N)c(N2CCOCC2)c1 [US9694016, 250]
// result 0.8

----------
IC50: recorded values
Molecular target: RAF proto-oncogene serine/threonine-protein kinase [Y340E,Y341E] (Human, UniProt P04049, Y340E/Y341E)
Assay: Raf Activity Assay
Details: pH 7.5; 25 °C
Return type: number; implicit unit nM.

CCOc1nnc(-c2cc(NC(=O)c3cccc(C(F)F)c3)cnc2C)cc1N1CCOCC1 [US9694016, 619]: 0.5
Cc1ccc(NC(=O)c2ccnc(C3CC3)c2)cc1-c1cc(N2CCOCC2)c(=O)n(C)n1 [US9694016, 656]: 0.3

Here is another compound to look at.
// query Read off the recorded IC50 for CCOc1nnc(-c2cc(NC(=O)c3ccnc(C(F)(F)F)c3)ccc2C)cc1N1CCOCC1 [US9694016, 566]
// result 0.2
